# Tested on: MDA-MB-468 breast
# PROTOCOL DETAILS: NCI tumour cell line growth inhibition, 48 h
So basically: TGI at 4 µM or higher? That is TRUE. Lower than 4 µM? That is FALSE.

O=C1/C=C/[C@@H](O)[C@@H]2C[C@@H](O)C[C@H]2/C=C/CCC[C@H](CCc2cccc3ccccc23)O1
FALSE
Oc1ccc(Nc2ccc3ccccc3c2)cc1
TRUE
O=C(O)[C@H](Cc1c[nH]c2ccccc12)N1C(=O)c2ccccc2C1=O
TRUE
CCCCN1CCCC[C@@H]1C(=O)N[C@H](C(=O)N(C)[C@H](C[C@@H](OC(C)=O)c1nc(C(=O)NC2CCC(C(=O)OC)CC2)cs1)C(C)C)C(C)C (some centres undefined)
TRUE

Determine whether measured TGI meets or exceeds 4 µM for C=C1C(=O)O[C@H]2[C@H]1CC/C(COC(=O)NCc1c[nH]c3ccccc13)=C\CC[C@@]1(C)O[C@@H]21
FALSE

Determine whether measured TGI meets or exceeds 4 µM for CN(C)CCCN(CCC1CCCCC1)CCC1CCCCC1
FALSE

Determine whether measured TGI meets or exceeds 4 µM for NC(=NCc1ccccc1)C(N=Nc1ccccc1)C(=O)NCc1ccccc1 (centres undefined)
TRUE

Determine whether measured TGI meets or exceeds 4 µM for COc1cc2c(c(OC)c1OC)-c1ccc(O)cc1[C@@H](NC(C)=O)CC2
FALSE

Determine whether measured TGI meets or exceeds 4 µM for Cn1c(=O)c(Oc2ccc(F)cc2F)cc2cnc(NC(C)(C)CO)nc21
TRUE

====

# System: MDA-MB-468 breast
# PROTOCOL DETAILS: NCI tumour cell line growth inhibition, 48 h; in the data active = GI50 below about 0.43 µM; inactive = the rest
Return exactly one item of active, inactive

Solved cases (4 shown):
CCCc1n(Cc2ccc3ccccc3c2)cc[n+]1Cc1ccc2ccccc2c1
active
NC(=NCc1ccccc1)C(N=Nc1ccccc1)C(=O)NCc1ccccc1 (configuration not stated)
inactive
CC(C)(C)Nc1nc2c(OCCc3ccccc3)cccn2c1-c1cccc(Oc2ccccc2)c1
inactive
C[C@H]1/C(=C/C(=O)OCCN(C)C)CC[C@H]2[C@H]1C(=O)C[C@H]1C(C)(C)[C@@H](O)CC[C@]21C
inactive

Assay outcome for O=C1/C(=C/c2ccccc2)CN(C(=O)C(Cl)Cl)C/C1=C\c1ccccc1 : what was it?
active

Assay outcome for O=C(O)[C@H](Cc1c[nH]c2ccccc12)N1C(=O)c2ccccc2C1=O : what was it?
inactive

Assay outcome for COC1C(O)CC(OC2CC(OC3CC(O[C@@H]4C(=O)c5c(cc6cc(OC7CC(OC8CC(O)C(O)C(C)O8)C(O)C(C)O7)c(C)c(O)c6c5O)CC4[C@H](OC)C(=O)O)OC(C)C3O)OC(C)C2O)OC1C (some centres not stated) : what was it?
inactive

====

Give measured TGI for each item. Keep answers brief.
# Test system: MDA-MB-468 breast
# PROTOCOL DETAILS: NCI tumour cell line growth inhibition, 48 h
Give bare numbers, in µM.

CCCc1n(Cc2ccc3ccccc3c2)cc[n+]1Cc1ccc2ccccc2c1
0.98

# map each molecule to its TGI
1. Cc1ccc2oc(=O)cc(/C(=C3/C=CC=N3)c3ccc[nH]3)c2c1
2. CCN1CCC(Nc2ccnc3cc(Cl)ccc23)CC1
3. CCCCCCCCCCCCCCCC1=NCCN1
4. CC(C)(C)Nc1nc2c(OCCc3ccccc3)cccn2c1-c1cccc(Oc2ccccc2)c1
5. COC1C(O)CC(OC2CC(OC3CC(O[C@@H]4C(=O)c5c(cc6cc(OC7CC(OC8CC(O)C(O)C(C)O8)C(O)C(C)O7)c(C)c(O)c6c5O)CC4[C@H](OC)C(=O)O)OC(C)C3O)OC(C)C2O)OC1C (stereo partly specified)

[1.02, 32, 4.07, 6.75, 12.4]
